B1: EEHEE_rd4_0469 (parent)
chain: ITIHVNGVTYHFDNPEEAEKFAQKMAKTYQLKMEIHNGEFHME

Variants of: B1
Experiment: folding stability dG (cDNA display proteolysis); higher = more stable
Condition set: PBS, room temperature
Measured parameter: folding stability dG (kcal/mol)
Hi! Could you send only the number? It should be in kcal/mol, unit omitted.

Solved entries (count: 2):
{"Variant key": "E39R", "Endpoint result": 0.762}
{"Variant key": "H41D", "Endpoint result": 0.697}

Moving on to the next variant.
Entry `Q30K` , folding stability dG reported as 1.12
